Here we list compounds with their recorded IC50 when tested on Protein deacetylase HDAC6 (Homo sapiens, UniProt Q9UBN7).
Sequence (Q9UBN7 whole entry): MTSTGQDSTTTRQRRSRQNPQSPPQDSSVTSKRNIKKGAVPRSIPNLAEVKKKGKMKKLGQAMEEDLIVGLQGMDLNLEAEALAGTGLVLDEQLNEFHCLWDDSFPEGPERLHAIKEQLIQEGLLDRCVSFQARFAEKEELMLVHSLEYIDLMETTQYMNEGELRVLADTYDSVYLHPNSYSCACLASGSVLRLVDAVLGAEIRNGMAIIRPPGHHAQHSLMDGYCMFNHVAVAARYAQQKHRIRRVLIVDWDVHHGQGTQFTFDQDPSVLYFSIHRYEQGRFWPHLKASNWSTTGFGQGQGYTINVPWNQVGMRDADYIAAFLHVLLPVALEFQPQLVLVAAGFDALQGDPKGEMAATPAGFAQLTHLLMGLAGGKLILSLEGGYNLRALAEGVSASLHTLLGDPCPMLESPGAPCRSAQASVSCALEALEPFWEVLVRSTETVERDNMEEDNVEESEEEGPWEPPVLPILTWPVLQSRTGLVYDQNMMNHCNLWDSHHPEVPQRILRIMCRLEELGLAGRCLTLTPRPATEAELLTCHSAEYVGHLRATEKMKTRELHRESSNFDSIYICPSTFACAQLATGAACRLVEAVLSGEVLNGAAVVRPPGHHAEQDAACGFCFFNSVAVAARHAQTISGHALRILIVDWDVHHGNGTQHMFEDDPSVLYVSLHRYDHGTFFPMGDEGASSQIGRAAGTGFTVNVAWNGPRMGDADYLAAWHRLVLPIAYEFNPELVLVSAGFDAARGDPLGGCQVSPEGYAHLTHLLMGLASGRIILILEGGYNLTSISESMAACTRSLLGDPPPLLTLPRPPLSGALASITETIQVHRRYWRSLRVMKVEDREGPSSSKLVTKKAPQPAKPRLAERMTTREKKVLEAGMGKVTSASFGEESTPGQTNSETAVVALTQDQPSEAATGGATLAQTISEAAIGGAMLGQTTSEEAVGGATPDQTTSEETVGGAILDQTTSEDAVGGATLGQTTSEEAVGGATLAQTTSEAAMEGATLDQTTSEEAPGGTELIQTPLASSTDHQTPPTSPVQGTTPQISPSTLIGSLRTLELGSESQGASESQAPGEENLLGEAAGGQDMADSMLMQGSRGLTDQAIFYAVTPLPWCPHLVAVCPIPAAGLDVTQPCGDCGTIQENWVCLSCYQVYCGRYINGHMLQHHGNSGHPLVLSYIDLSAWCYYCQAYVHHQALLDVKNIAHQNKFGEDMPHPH
readout_kind: IC50 (µM)

• CCC(=O)CCCCC[C@H](NC(=O)[C@H]1CC12CCN(C)CC2)c1[nH]c(-c2ccc(F)cc2F)nc1C#N = 14.8
• CCC(=O)CCCCC[C@H](NC(=O)[C@H]1CC12CCN(C)CC2)c1[nH]c(-c2ccc(F)cc2)nc1C(N)=O = 17.6
• CCC(=O)CCCCC[C@H](NC(=O)[C@H]1CC12CCN(C)CC2)c1[nH]c(-c2ccc(C(F)(F)F)cc2)nc1C#N = 8.25
• CCC(=O)CCCCC[C@H](NC(=O)[C@H]1CC12CCN(C)CC2)c1[nH]c(-c2ccc(-c3cccnc3)cc2)nc1C#N = 9.47
• CCC(=O)CCCCCC(NC(=O)c1cncs1)c1[nH]c(-c2ccccc2)nc1C(=O)NC (stereo not given) = 29.2
• CCC(=O)CCCCC[C@H](NC(=O)C1CN(C)C1)c1[nH]c(-c2ccc(F)cc2)nc1C(N)=O = 15.9
• CCC(=O)CCCCC[C@H](NC(=O)[C@H]1CC12CCN(CC)CC2)c1[nH]c(-c2ccc(F)cc2)nc1C#N = 23.6
• CCC(=O)CCCCC[C@H](NC(=O)C1CN(C)C1)c1[nH]c(-c2ccccc2)nc1C(N)=O = 9.83
• CCC(=O)CCCCC[C@H](NC(=O)[C@H]1CC12CCN(C)CC2)c1[nH]c(-c2cc3ccccc3nc2OC)nc1C#N = 8.97
• CCC(=O)CCCCC[C@H](NC(=O)C1CN(C)C1)c1[nH]c(-c2ccc(F)cc2)nc1C#N = 36.9
• CCC(=O)CCCCC[C@H](NC(=O)[C@H]1CC12CCN(C)CC2)c1[nH]c(-c2ccc3nc(C)ccc3c2)nc1C#N = 6.3
• CCC(=O)CCCCC[C@H](NC(=O)[C@H]1CC12CCN(C)CC2)c1[nH]c(-c2cccnc2OC)nc1C#N = 17.1
